Source of measurements: patent US9815851B2

compounds and their reported pIC50 (REN)
target: RORγ (UniProt P51449); assay: RORγ Gal4 Reporter Gene Assay in 293T cells (firefly and renilla luciferase); format: cell-based, human

// solved cases for pIC50 (REN) follow
Query: What value of measured pIC50 (REN) is listed for Cc1c(C(=O)NC(C)C(C)(C)O)cc(-c2cc(C(C)(C)C)cc(C(C)(C)C)c2)n1CC1CCCCC1 (stereo not shown) ?
Response: 6.8/6.5/6.6

Query: Please look up its pIC50 (REN): Cc1c(C(=O)N(C)CC2(CO)COC2)cc(-c2cc(C(C)(C)C)cc(C3(C)CC3)c2)n1CC1CCCCC1
Response: 6.3/7.3/7.3

Query: GET /values?readout=pIC50 (REN)&item= Cc1c(C(=O)NCC(C)(C)N)cc(-c2cc(C(C)(C)C)c3c(c2)C2(CCO3)CC2)n1CC1CCCCC1.Cl
Response: 5.6/6.3/6.5

Query: Look up pIC50 (REN): Cc1c(C(=O)NC2(C)CCOCC2)cc(-c2ccc(S(=O)(=O)NC(C)(C)C)c(C(F)(F)F)c2)n1CC1CCCCC1
Response: 6.7/7.3/7.6

Query: Look up pIC50 (REN) for this compound: CC(C)(C)NS(=O)(=O)c1ccc(-c2c(Cl)c(C(=O)NC3CCOCC3)c(Cl)n2CC2CCCCC2)c2ccccc12
Response: 6.7/8.5/8.5

# next compound below
Query: Find the recorded pIC50 (REN) belonging to Cc1c(C(=O)NC2C[S+]([O-])C2)cc(-c2cc(C(C)(C)C)c3c(c2)C2(CCO3)CC2)n1CC1CCCCC1 (stereo not shown) and report it.
Response: 6.5/6.9/7.0
